Target: Peroxisome proliferator-activated receptor alpha (Homo sapiens) (UniProt Q07869)
Assay: Agonist activity at human PPARalpha in HEK293T cells at 50 uM by GAL4 transactivation assay relative to WY-14643
Type: functional, cell-based
Conditions: HEK-293T
Metric Name: Activity

structure_as_smiles=C/C(=C/C(=O)c1ccccc1)N[C@@H](Cc1ccc(OCCOc2cc(C(F)(F)F)nc3c(C(F)(F)F)cccc23)cc1)C(=O)O metric_name=Activity recorded_result=1.1
structure_as_smiles=C/C(=C/C(=O)c1ccccc1)N[C@@H](Cc1ccc(OCCn2c3ccccc3c3ccccc32)cc1)C(=O)O metric_name=Activity recorded_result=1.4
structure_as_smiles=O=C(C1=C(N[C@@H](Cc2ccc(OCCOc3cccc4[nH]c5ccccc5c34)cc2)C(=O)O)CCCC1)c1ccccc1 metric_name=Activity recorded_result=1.2
structure_as_smiles=COC(=O)[C@H](Cc1ccc(OCCn2c3ccccc3c3ccccc32)cc1)N/C(C)=C\C(=O)c1ccccc1 metric_name=Activity recorded_result=1.2

###

Biological target: Peroxisome proliferator-activated receptor alpha (Homo sapiens)
Sequence (whole entry): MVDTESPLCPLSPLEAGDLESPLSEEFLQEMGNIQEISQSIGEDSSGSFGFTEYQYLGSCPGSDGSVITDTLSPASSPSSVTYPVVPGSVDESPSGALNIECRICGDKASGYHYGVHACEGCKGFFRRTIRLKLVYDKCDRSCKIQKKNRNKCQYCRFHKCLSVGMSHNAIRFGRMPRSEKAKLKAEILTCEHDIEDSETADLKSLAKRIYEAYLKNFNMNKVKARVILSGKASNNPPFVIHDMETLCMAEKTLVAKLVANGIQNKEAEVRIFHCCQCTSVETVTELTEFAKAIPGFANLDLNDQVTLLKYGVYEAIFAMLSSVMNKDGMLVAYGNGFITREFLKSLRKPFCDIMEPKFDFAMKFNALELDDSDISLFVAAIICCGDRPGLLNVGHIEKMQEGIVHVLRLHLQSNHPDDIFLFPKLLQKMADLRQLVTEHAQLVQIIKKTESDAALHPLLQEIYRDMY
Experiment: Agonist activity at human PPARalpha in HEK293T cells at 50 uM by GAL4 transactivation assay relative to WY-14643
Format: functional, cell-based
Conditions: HEK-293T
Metric Name: Activity

structure_as_smiles=C/C(=C/C(=O)c1ccccc1)N[C@@H](Cc1ccc(OCCOc2cccc3[nH]c4ccccc4c23)cc1)C(=O)O recorded_result=4.6

P. C/C(=C/C(=O)c1ccccc1)N[C@@H](Cc1ccc(OCCOc2ccc(C(=O)c3ccc(Cl)cc3)cc2)cc1)C(=O)O
Q. C/C(=C/C(=O)c1ccccc1)N[C@@H](Cc1ccc(OCCCOc2cccc3[nH]c4ccccc4c23)cc1)C(=O)O
R. COC(=O)[C@H](Cc1ccc(OCCOc2ccc3c(c2)[nH]c2ccccc23)cc1)N/C(C)=C\C(=O)c1ccccc1
Order each entry by recorded Activity, climbing from the minimum. // ordering of labels required in reply
R, P, Q

###

Target: Peroxisome proliferator-activated receptor alpha (Homo sapiens)
Assay: Agonist activity at human PPARalpha in HEK293T cells at 50 uM by GAL4 transactivation assay relative to WY-14643
Format: functional, cell-based
Settings: HEK-293T
Metric Name: Activity

structure_as_smiles=COC(=O)[C@H](Cc1ccc(OCCOc2cccc3[nH]c4ccccc4c23)cc1)NC1=C(C(=O)c2ccccc2)CCCC1 metric_name=Activity recorded_result=1.4

I. C/C(=C/C(=O)c1ccccc1)N[C@@H](Cc1ccc(OCCOc2ccc3c(c2)[nH]c2ccccc23)cc1)C(=O)O
II. O=C(C1=C(N[C@@H](Cc2ccc(OCCn3c4ccccc4c4ccccc43)cc2)C(=O)O)CCCC1)c1ccccc1
III. C/C(=C/C(=O)c1ccccc1)N[C@@H](Cc1ccc(OCCc2ccc(C(F)(F)F)cc2)cc1)C(=O)O
IV. COC(=O)[C@H](Cc1ccc(OCCn2c3ccccc3c3ccccc32)cc1)NC1=C(C(=O)c2ccccc2)CCCC1
List items by Activity in falling order. When ranking, write the labels in the order the request describes.
I, II, IV, III
(I: 2, II: 1, IV: 0.5, III: 0.3)
